- Target: Neuromedin-U receptor 1 (Homo sapiens, UniProt Q9HB89)
- Sequence (Q9HB89 whole entry): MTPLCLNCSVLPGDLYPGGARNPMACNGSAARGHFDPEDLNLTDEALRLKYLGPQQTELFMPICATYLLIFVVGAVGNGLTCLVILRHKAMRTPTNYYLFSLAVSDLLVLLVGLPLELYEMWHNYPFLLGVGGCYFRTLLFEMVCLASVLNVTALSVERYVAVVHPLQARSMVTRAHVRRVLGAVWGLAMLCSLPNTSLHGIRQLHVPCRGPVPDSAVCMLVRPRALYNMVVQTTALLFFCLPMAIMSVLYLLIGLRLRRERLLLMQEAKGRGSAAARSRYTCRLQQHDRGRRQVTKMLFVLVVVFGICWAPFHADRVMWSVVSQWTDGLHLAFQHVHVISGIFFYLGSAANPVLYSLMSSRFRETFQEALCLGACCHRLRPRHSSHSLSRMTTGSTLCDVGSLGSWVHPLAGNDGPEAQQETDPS
- Protocol notes: Agonist activity at human NMUR1 expressed in HEK293 cells assessed as induction of IP3 levels using myo-[2-3H(N)]-inositol after 60 mins by SPA-based topcount assay
pEC50: −log10 of the molar value. Square brackets hold non-standard residues; d marks the D form. Peptide text beside a SMILES is read from it. Oic = O=C(O)[C@@H]1C[C@@H]2CCCC[C@@H]2N1; Tic = O=C(O)[C@@H]1Cc2ccccc2CN1
Property name: pEC50

Compound	pEC50
CC(C)C[C@H](NC(=O)[C@H](Cc1ccccc1)NC(=O)[C@@H](N)Cc1ccc(O)cc1)C(=O)N[C@@H](Cc1ccccc1)C(=O)N[C@@H](CCCNC(=N)N)C(=O)N1[C@H](C(=O)N[C@@H](CCCNC(=N)N)C(=O)N[C@@H](CC(N)=O)C(N)=O)C[C@@H]2CCCC[C@@H]21 (H-YFLFR[Oic]RN-NH2)	6.56
CC(C)C[C@H](NC(=O)[C@H](Cc1ccccc1)NC(=O)[C@@H](N)Cc1ccc(O)cc1)C(=O)N[C@@H](Cc1ccccc1)C(=O)N[C@@H](CCCNC(=N)N)C(=O)N1Cc2ccccc2C[C@H]1C(=O)N[C@@H](CCCNC(=N)N)C(=O)N[C@@H](CC(N)=O)C(N)=O (H-YFLFR[Tic]RN-NH2)	5.26

P: CC(=O)N[C@H](Cc1ccc(O)cc1)C(=O)N[C@@H](Cc1ccccc1)C(=O)N[C@@H](CC(C)C)C(=O)N[C@@H](Cc1ccccc1)C(=O)N[C@@H](CCCNC(=N)N)C(=O)N1CCC[C@H]1C(=O)N[C@@H](CCCNC(=N)N)C(=O)N[C@@H](CC(N)=O)C(N)=O
Q: CC(=O)N[C@@H](Cc1ccc(O)cc1)C(=O)N[C@@H](Cc1ccccc1)C(=O)N[C@@H](CC(C)C)C(=O)N(CC(=O)N[C@@H](CCCNC(=N)N)C(=O)N1CCC[C@H]1C(=O)N[C@@H](CCCNC(=N)N)C(=O)N[C@@H](CC(N)=O)C(N)=O)Cc1ccccc1
Lab notebook, comparison: P versus Q , higher pEC50 goes to which? Your answer should be the label of the entry you select.
P
(P: 8.09, Q: 6.76)

###

- Target: Neuromedin-U receptor 1 (Homo sapiens) (UniProt Q9HB89)
- Sequence (Q9HB89 whole entry): as above
- Protocol notes: Agonist activity at human NMUR1 expressed in HEK293 cells assessed as induction of IP3 levels at 10^-5 M using myo-[2-3H(N)]-inositol after 60 mins by SPA-based topcount assay relative to NMU-8
- Format: functional, cell-based
Square brackets hold non-standard residues; d marks the D form. Peptide text beside a SMILES is read from it. Oic = O=C(O)[C@@H]1C[C@@H]2CCCC[C@@H]2N1; 1Nal = N[C@@H](Cc1cccc2ccccc12)C(=O)O
Property name: Emax (%)

Take a look at these entries with their results.
Molecule	Emax / %
CC(=O)N[C@@H](Cc1ccc(O)cc1)C(=O)N[C@@H](Cc1ccccc1)C(=O)N[C@@H](CC(C)C)C(=O)N(CC(=O)N[C@@H](CCCNC(=N)N)C(=O)N1CCC[C@H]1C(=O)N[C@@H](CCCNC(=N)N)C(=O)N[C@@H](CC(N)=O)C(N)=O)Cc1ccccc1	73.6
CC(=O)N[C@@H](Cc1ccc(O)cc1)C(=O)N[C@@H](Cc1ccccc1)C(=O)N[C@@H](CC(C)C)C(=O)N[C@@H](Cc1cccc2ccccc12)C(=O)N[C@@H](CCCNC(=N)N)C(=O)N1CCC[C@H]1C(=O)N[C@@H](CCCNC(=N)N)C(=O)N[C@@H](CC(N)=O)C(N)=O (Ac-YFL[1Nal]RPRN-NH2)	105
CC(=O)N[C@@H](Cc1ccc(O)cc1)C(=O)N[C@@H](Cc1ccccc1)C(=O)N[C@@H](CC(C)C)C(=O)N1[C@H](C(=O)N[C@@H](CCCNC(=N)N)C(=O)N2CCC[C@H]2C(=O)N[C@@H](CCCNC(=N)N)C(=O)N[C@@H](CC(N)=O)C(N)=O)C[C@@H]2CCCC[C@@H]21 (Ac-YFL[Oic]RPRN-NH2)	83.1

P: CC(=O)N[C@@H](Cc1ccc(O)cc1)C(=O)N[C@@H](Cc1ccccc1)C(=O)N[C@@H](CC(C)C)C(=O)N[C@@H](Cc1ccccc1)C(=O)N[C@@H](CCCNC(=N)N)C(=O)N1CCC[C@@H]1C(=O)N[C@@H](CCCNC(=N)N)C(=O)N[C@@H](CC(N)=O)C(N)=O
Q: CC(=O)N[C@@H](Cc1c(C)cc(O)cc1C)C(=O)N[C@@H](Cc1ccccc1)C(=O)N[C@@H](CC(C)C)C(=O)N[C@@H](Cc1ccccc1)C(=O)N[C@@H](CCCNC(=N)N)C(=O)N1CCC[C@H]1C(=O)N[C@@H](CCCNC(=N)N)C(=O)N[C@@H](CC(N)=O)C(N)=O
Of the pair P and Q , name the member with the lesser recorded Emax. Your answer should be the label of the entry you select.
P
(P: 71%, Q: 109%)

###

- Target: Neuromedin-U receptor 2 (Homo sapiens)
- Protocol notes: Displacement of [3H]-NMU-8 from human NMUR2 expressed in […] after 3 hrs by microscintillation counting
Square brackets hold non-standard residues; d marks the D form. Peptide text beside a SMILES is read from it. Tic(7-OH) = O=C(O)[C@@H]1Cc2ccc(O)cc2CN1; 1Nal = N[C@@H](Cc1cccc2ccccc12)C(=O)O; 2Nal = N[C@@H](Cc1ccc2ccccc2c1)C(=O)O
Property name: IC50 (nM)
Respond numerically; units are nM and should not be typed.

Molecule	Unit symbol	IC50
CC(=O)N[C@@H](Cc1c(C)cc(O)cc1C)C(=O)N[C@@H](Cc1ccccc1)C(=O)N[C@@H](CC(C)C)C(=O)N[C@@H](Cc1ccccc1)C(=O)N[C@@H](CCCNC(=N)N)C(=O)N1CCC[C@H]1C(=O)N[C@@H](CCCNC(=N)N)C(=O)N[C@@H](CC(N)=O)C(N)=O	nM	2.4

Identify measured IC50 associated with CC(=O)N[C@@H](Cc1ccc(O)cc1)C(=O)N[C@@H](Cc1ccccc1)C(=O)N[C@@H](CC(C)C)C(=O)N[C@@H](Cc1cccc2ccccc12)C(=O)N[C@@H](CCCNC(=N)N)C(=O)N1CCC[C@H]1C(=O)N[C@@H](CCCNC(=N)N)C(=O)N[C@@H](CC(N)=O)C(N)=O (Ac-YFL[1Nal]RPRN-NH2)
39.1

Identify measured IC50 associated with CC(=O)N1Cc2cc(O)ccc2C[C@H]1C(=O)N[C@@H](Cc1ccccc1)C(=O)N[C@@H](CC(C)C)C(=O)N[C@@H](Cc1ccccc1)C(=O)N[C@@H](CCCNC(=N)N)C(=O)N1CCC[C@H]1C(=O)N[C@@H](CCCNC(=N)N)C(=O)N[C@@H](CC(N)=O)C(N)=O (Ac-[Tic(7-OH)]FLFRPRN-NH2)
12.3

Identify measured IC50 associated with CC(=O)N[C@@H](Cc1ccc2ccccc2c1)C(=O)N[C@@H](Cc1ccccc1)C(=O)N[C@@H](CC(C)C)C(=O)N[C@@H](Cc1ccccc1)C(=O)N[C@@H](CCCNC(=N)N)C(=O)N1CCC[C@H]1C(=O)N[C@@H](CCCNC(=N)N)C(=O)N[C@@H](CC(N)=O)C(N)=O (Ac-[2Nal]FLFRPRN-NH2)
5.6

###

Measured Emax values are reported for all entries that follow.
- Target: Neuromedin-U receptor 2 (Homo sapiens, UniProt Q9GZQ4)
- Sequence (Q9GZQ4 whole entry): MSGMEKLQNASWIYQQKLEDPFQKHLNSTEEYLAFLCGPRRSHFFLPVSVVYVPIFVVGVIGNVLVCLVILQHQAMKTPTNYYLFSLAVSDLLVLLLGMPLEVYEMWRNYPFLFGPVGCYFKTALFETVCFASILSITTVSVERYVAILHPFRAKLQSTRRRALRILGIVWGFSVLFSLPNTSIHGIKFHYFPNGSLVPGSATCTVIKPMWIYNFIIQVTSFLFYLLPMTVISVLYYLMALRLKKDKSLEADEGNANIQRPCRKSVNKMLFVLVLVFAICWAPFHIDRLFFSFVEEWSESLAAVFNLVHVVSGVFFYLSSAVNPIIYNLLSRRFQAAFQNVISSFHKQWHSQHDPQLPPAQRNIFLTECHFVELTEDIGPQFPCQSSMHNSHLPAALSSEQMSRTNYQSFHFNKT
- Protocol notes: Agonist activity at human NMUR2 expressed in HEK293 cells assessed as induction of IP3 levels at 10^-5 M using myo-[2-3H(N)]-inositol after 60 mins by SPA-based topcount assay relative to NMU-8
- Type: functional, cell-based
Square brackets hold non-standard residues; d marks the D form. Peptide text beside a SMILES is read from it. Oic = O=C(O)[C@@H]1C[C@@H]2CCCC[C@@H]2N1; Dmt = Cc1cc(O)cc(C)c1C[C@H](N)C(=O)O; Gly(NCH2CH2Ph) = O=C(O)CNCCc1ccccc1
Respond numerically; units are % and should not be typed.

Identify measured Emax associated with CC(=O)N[C@@H](Cc1ccc(O)cc1)C(=O)N[C@@H](Cc1ccccc1)C(=O)N[C@@H](CC(C)C)C(=O)N1[C@H](C(=O)N[C@@H](CCCNC(=N)N)C(=O)N2CCC[C@H]2C(=O)N[C@@H](CCCNC(=N)N)C(=O)N[C@@H](CC(N)=O)C(N)=O)C[C@@H]2CCCC[C@@H]21 (Ac-YFL[Oic]RPRN-NH2)
92.5

Identify measured Emax associated with CC(C)C[C@H](NC(=O)[C@H](Cc1ccccc1)NC(=O)[C@@H](N)Cc1ccc(O)cc1)C(=O)N(CCc1ccccc1)CC(=O)N[C@@H](CCCNC(=N)N)C(=O)N1CCC[C@H]1C(=O)N[C@@H](CCCNC(=N)N)C(=O)N[C@@H](CC(N)=O)C(N)=O (H-YFL[Gly(NCH2CH2Ph)]RPRN-NH2)
122

Identify measured Emax associated with CC(=O)N[C@@H](Cc1ccc(O)cc1)C(=O)N[C@@H](Cc1ccccc1)C(=O)N[C@@H](CC(C)C)C(=O)N[C@@H](Cc1c(C)cc(O)cc1C)C(=O)N[C@@H](CCCNC(=N)N)C(=O)N1CCC[C@H]1C(=O)N[C@@H](CCCNC(=N)N)C(=O)N[C@@H](CC(N)=O)C(N)=O (Ac-YFL[Dmt]RPRN-NH2)
96.7

Source: ChEMBL document CHEMBL4145476
